Tested on: Plasmodium falciparum
test: Resistance index, ratio of IC90 for CQ-resistant, MFQ-susceptible Plasmodium falciparum W2 clone Indochina 1 isolate to IC90 for CQ, MFQ-susceptible Plasmodium falciparum D6 clone Sierra 1/UNC isolate
Assay type: functional
assay-readout: Ratio

- CC(=O)O[C@@H]1CC[C@@]2(C)[C@@H](C1)C[C@@H](OC(C)=O)[C@@H]1[C@@H]2C[C@H](OC(C)=O)[C@]2(C)[C@@H]([C@H](C)CCCN(C)CCCNc3ccnc4cc(Cl)ccc34)CC[C@@H]12: 1.61
- CC(=O)O[C@@H]1CC[C@@]2(C)[C@@H](C1)C[C@@H](OC(C)=O)[C@@H]1[C@@H]2C[C@H](OC(C)=O)[C@]2(C)[C@@H]([C@H](C)CCCN(C)CCNc3ccnc4cc(Cl)ccc34)CC[C@@H]12: 2.03
- CC(=O)O[C@H]1C[C@H]2[C@@H]([C@H](OC(C)=O)C[C@@H]3CC(=O)CC[C@@]32C)[C@@H]2CC[C@H]([C@H](C)CCCNCCCNc3ccnc4cc(Cl)ccc34)[C@@]12C: 1.21
- CC(=O)O[C@H]1C[C@H]2[C@@H]([C@H](OC(C)=O)C[C@@H]3C[C@H](O)CC[C@@]32C)[C@@H]2CC[C@H]([C@H](C)CCCNCCCNc3ccnc4cc(Cl)ccc34)[C@@]12C: 1.14

###

Each entry below lists one item and its recorded pIC50 value.
Tested on: Plasmodium falciparum
test: Antimalarial activity against CQ-resistant, MFQ-susceptible Plasmodium falciparum W2 clone Indochina 1 isolate assessed as inhibition of parasite proliferation by MSF assay
Type: functional, organism-based
pIC50: −log10 of the molar value.
assay-readout: pIC50

• CC(=O)O[C@H]1C[C@H]2[C@@H]([C@H](OC(C)=O)C[C@@H]3CC(NCCNc4ccnc5cc(Cl)ccc45)CC[C@@]32C)[C@@H]2CC[C@H]([C@H](C)CCCNCCNc3ccnc4cc(Cl)ccc34)[C@@]12C (some centres undefined) = 7.01
• CC(=O)O[C@H]1C[C@H]2[C@@H]([C@H](OC(C)=O)C[C@@H]3C[C@H](NC(=O)OC(C)(C)C)CC[C@@]32C)[C@@H]2CC[C@H]([C@H](C)CCCN(C)CCNc3ccnc4cc(Cl)ccc34)[C@@]12C = 8.09
• CC(=O)O[C@H]1C[C@H]2[C@@H]([C@H](OC(C)=O)C[C@@H]3C[C@H](NS(C)(=O)=O)CC[C@@]32C)[C@@H]2CC[C@H]([C@H](C)CCCNCCCNc3ccnc4cc(Cl)ccc34)[C@@]12C = 7.46
• CC(=O)O[C@H]1C[C@H]2[C@@H]([C@H](OC(C)=O)C[C@@H]3C[C@H](N)CC[C@@]32C)[C@@H]2CC[C@H]([C@H](C)CCCNCCNc3ccnc4cc(Cl)ccc34)[C@@]12C = 6.79

###

Let's look at some compounds and their measured Ratio.
Tested on: Plasmodium falciparum
test: Resistance index, ratio of IC90 for CQ-resistant, MFQ-susceptible Plasmodium falciparum W2 clone Indochina 1 isolate to IC90 for CQ, MFQ-susceptible Plasmodium falciparum D6 clone Sierra 1/UNC isolate
Format: functional
assay-readout: Ratio

* CC(=O)O[C@H]1C[C@H]2[C@@H]([C@H](OC(C)=O)C[C@@H]3C[C@H](N)CC[C@@]32C)[C@@H]2CC[C@H]([C@H](C)CCCN(C)CCCNc3ccnc4cc(Cl)ccc34)[C@@]12C | 1.02
* CC(=O)O[C@H]1C[C@H]2[C@@H]([C@H](OC(C)=O)C[C@@H]3C[C@H](N)CC[C@@]32C)[C@@H]2CC[C@H]([C@H](C)CCCNCCNc3ccnc4cc(Cl)ccc34)[C@@]12C | 1.33
* CC(=O)O[C@H]1C[C@H]2[C@@H]([C@H](OC(C)=O)C[C@@H]3C[C@H](N)CC[C@@]32C)[C@@H]2CC[C@H]([C@H](C)CCCNCCCNc3ccnc4cc(Cl)ccc34)[C@@]12C | 1.21
* CC(=O)O[C@H]1C[C@H]2[C@@H]([C@H](OC(C)=O)C[C@@H]3C[C@H](N)CC[C@@]32C)[C@@H]2CC[C@H]([C@H](C)CCCN(CCC[C@@H](C)[C@H]3CC[C@H]4[C@@H]5[C@H](OC(C)=O)C[C@@H]6C[C@H](N)CC[C@]6(C)[C@H]5C[C@H](OC(C)=O)[C@]34C)CCNc3ccnc4cc(Cl)ccc34)[C@@]12C | 0.92

###

test: Selectivity index, ratio of IC50 for human HepG2 cells to IC50 for CQ-resistant, MFQ-susceptible Plasmodium falciparum W2 clone Indochina 1 isolate
Type: toxicity, cell-based
test-context: read-out: Ratio IC50
assay-readout: selectivity ratio

• CC(=O)O[C@H]1C[C@H]2[C@@H]([C@H](OC(C)=O)C[C@@H]3C[C@H](N)CC[C@@]32C)[C@@H]2CC[C@H]([C@H](C)CCCN(CCCNc3ccnc4cc(Cl)ccc34)CCC[C@@H](C)[C@H]3CC[C@H]4[C@@H]5[C@H](OC(C)=O)C[C@@H]6C[C@H](N)CC[C@]6(C)[C@H]5C[C@H](OC(C)=O)[C@]34C)[C@@]12C = 10
• CC(=O)O[C@H]1C[C@H]2[C@@H]([C@H](OC(C)=O)C[C@@H]3C[C@H](N)CC[C@@]32C)[C@@H]2CC[C@H]([C@H](C)CCCNCCCNc3ccnc4cc(Cl)ccc34)[C@@]12C = 54
• CC(=O)O[C@H]1C[C@H]2[C@@H]([C@H](OC(C)=O)C[C@@H]3C[C@H](N(C)C)CC[C@@]32C)[C@@H]2CC[C@H]([C@H](C)CCCN(C)CCCNc3ccnc4cc(Cl)ccc34)[C@@]12C = 93
• CC(=O)O[C@@H]1CC[C@@]2(C)[C@@H](C1)C[C@@H](OC(C)=O)[C@@H]1[C@@H]2C[C@H](OC(C)=O)[C@]2(C)[C@@H]([C@H](C)CCCNCCCCCCNc3ccnc4cc(Cl)ccc34)CC[C@@H]12 = 47

###

Tested on: Plasmodium falciparum
test: Antimalarial activity against CQ-resistant, MFQ-susceptible Plasmodium falciparum W2 clone Indochina 1 isolate assessed as inhibition of parasite proliferation by MSF assay
Assay type: functional, organism-based
IC50 strictly less than 10 nM = T. Otherwise F.

• CC(=O)O[C@H]1C[C@H]2[C@@H]([C@H](OC(C)=O)C[C@@H]3C[C@H](NS(C)(=O)=O)CC[C@@]32C)[C@@H]2CC[C@H]([C@H](C)CCCN(C)CCCNc3ccnc4cc(Cl)ccc34)[C@@]12C = F
• CC(=O)O[C@H]1C[C@H]2[C@@H]([C@H](OC(C)=O)C[C@@H]3CC(=O)CC[C@@]32C)[C@@H]2CC[C@H]([C@H](C)CCCNCCNc3ccnc4cc(Cl)ccc34)[C@@]12C = T
• CC(=O)O[C@H]1C[C@H]2[C@@H]([C@H](OC(C)=O)C[C@@H]3C[C@H](O)CC[C@@]32C)[C@@H]2CC[C@H]([C@H](C)CCCNCCCNc3ccnc4cc(Cl)ccc34)[C@@]12C = F
• CC(=O)O[C@H]1C[C@H]2[C@@H]([C@H](OC(C)=O)C[C@@H]3C[C@H](NS(C)(=O)=O)CC[C@@]32C)[C@@H]2CC[C@H]([C@H](C)CCCN(C)CCNc3ccnc4cc(Cl)ccc34)[C@@]12C = F
• C[C@@H]1CC[C@H]2[C@@H](C)C(=O)O[C@@H]3O[C@@]4(C)CC[C@@H]1[C@]32OO4 = T
• CC(=O)O[C@H]1C[C@H]2[C@@H]([C@H](OC(C)=O)C[C@@H]3C[C@H](NS(C)(=O)=O)CC[C@@]32C)[C@@H]2CC[C@H]([C@H](C)CCCNCCNc3ccnc4cc(Cl)ccc34)[C@@]12C = F
• CC(=O)O[C@@H]1CC[C@@]2(C)[C@@H](C1)C[C@@H](OC(C)=O)[C@@H]1[C@@H]2C[C@H](OC(C)=O)[C@]2(C)[C@@H]([C@H](C)CCCN(C)CCCNc3ccnc4cc(Cl)ccc34)CC[C@@H]12 = F
• CC(=O)O[C@H]1C[C@H]2[C@@H]([C@H](OC(C)=O)C[C@@H]3C[C@H](N(C)C)CC[C@@]32C)[C@@H]2CC[C@H]([C@H](C)CCCN(C)CCNc3ccnc4cc(Cl)ccc34)[C@@]12C = T
• CC(=O)O[C@H]1C[C@H]2[C@@H]([C@H](OC(C)=O)C[C@@H]3C[C@H](N(C)C)CC[C@@]32C)[C@@H]2CC[C@H]([C@H](C)CCCNCCCNc3ccnc4cc(Cl)ccc34)[C@@]12C = F

###

System: Plasmodium falciparum
test: Resistance index, ratio of IC90 for CQ-resistant, MFQ-susceptible Plasmodium falciparum W2 clone Indochina 1 isolate to IC90 for CQ, MFQ-susceptible Plasmodium falciparum D6 clone Sierra 1/UNC isolate
Type: functional
assay-readout: Ratio

* CC(=O)N[C@@H]1CC[C@@]2(C)[C@@H](C1)C[C@@H](OC(C)=O)[C@@H]1[C@@H]2C[C@H](OC(C)=O)[C@]2(C)[C@@H]([C@H](C)CCCNCCCNc3ccnc4cc(Cl)ccc34)CC[C@@H]12 | 0.98
* CC(=O)O[C@@H]1CC[C@@]2(C)[C@@H](C1)C[C@@H](OC(C)=O)[C@@H]1[C@@H]2C[C@H](OC(C)=O)[C@]2(C)[C@@H]([C@H](C)CCCNCCCNc3ccnc4cc(Cl)ccc34)CC[C@@H]12 | 1.38
